target: Streptavidin (Streptomyces avidinii); assay: streptavidin binders on small-molecule microarray, primary screen, artefact control for SMM compound annotation, biophysical, 635/667 nm fluorescence (AID 1147); details: streptavidin binding, higher = more signal;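 further: signal reflects streptavidin binding to arrayed compounds as a control protein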
Class TRUE: composite z-score at least -0.2. Class FALSE: composite z-score below -0.2.

A selection of reference data follows.
C=CC[C@]1(C(=O)NCc2ccccc2)COC(c2ccc(OCCCO)cc2)=N1    FALSE
CCOC(=O)C1=C(C(=O)OCC)N(S(=O)(=O)CC[Si](C)(C)C)[C@H](c2ccccc2)CC1    TRUE
CCCCN1CC=CC23O[C@@H]4C=CCOC(=O)[C@@H]4[C@H]2C(=O)N(CCO)[C@@H]3C1=O (some centres not stated)    FALSE

Query: Hi team, for O=C1C2C=CC(C(O)c3cccs3)N(Nc3ccccc3)C2C(=O)N1c1ccccc1 (configuration not stated) , is the recorded composite z-score at or above -0.2?
Reply: TRUE

Query: Exam item: decide whether the reported composite z-score for COCCOC(=O)N1C(=O)[C@@]2(c3cc(C#CCNC(N)=O)ccc31)[C@H](C(=O)NC[C@H](O)c1ccccc1)[C@H]1C(=O)O[C@H](c3ccccc3)[C@H](c3ccccc3)N1[C@@H]2c1ccc(OCCO)cc1 is at least -0.2.
Reply: TRUE

Query: Does the reported composite z-score for CCCCC(O)C1C=CC2C(=O)NC(=O)C2N1Nc1ccc(Cl)cc1Cl (configuration not stated) fall at or above the -0.2 mark?
Reply: TRUE

Query: Identify whether the reported composite z-score of the following molecule is -0.2 or greater: COc1ccc([Si](C)(C)[C@@H]2[C@@H](CCO)O[C@]3(C(=O)N(Cc4ccccc4)c4ccc(N5C(=O)c6ccccc6Oc6ccccc65)cc43)[C@H]2C)cc1
Reply: TRUE

Query: Quick check: does O=C1C2C=CC(C(O)C(c3ccccc3)c3ccccc3)N(Nc3ccccc3)C2C(=O)N1c1ccccc1 (configuration not stated) have composite z-score greater than or equal to -0.2?
Reply: TRUE

Query: Decide: is the reported value of composite z-score for CN(C)CCCC[C@@H]1NC(=O)[C@H]2C[C@@H](C(=O)NCc3ccc(F)cc3)[C@@H](c3ccc(O)cc3)N2C1=O equal to or greater than -0.2?
Reply: TRUE

Query: Say whether CCCCC(=C=CC[C@@H](O)c1cccc(OCCO)c1)C[C@@H](O)COCc1ccccc1 shows composite z-score of -0.2 or more.
Reply: FALSE

Query: I'd appreciate it if you could say whether COCC(=C=CC[C@@H](O)c1ccc(OCCO)cc1)C[C@@H](O)COCc1ccccc1 has composite z-score at least equal to -0.2.
Reply: FALSE

Query: I'd appreciate it if you could say whether COCCOC(=O)N1C(=O)[C@@]2(c3cc(C#Cc4ccc(OC)cc4)ccc31)[C@H](C(=O)Nc1nc3ccccc3s1)[C@H]1C(=O)O[C@H](c3ccccc3)[C@H](c3ccccc3)N1[C@@H]2c1ccccc1OCCO has composite z-score at least equal to -0.2.
Reply: TRUE
